Test system: MOLT-4
Assay: NCI tumour cell line growth inhibition, 48 h
Active and inactive are the calls of the source. Rule as the data show it: active = GI50 up to about 1.1 µM and inactive = higher.
Readout Name: GI50

Before answering, review these 2 worked examples.
{"Structure Smiles": "NCc1c(C(N)=O)ncn1Cc1ccccc1", "GI50": "> 100 µM (inactive)"}
{"Structure Smiles": "CC(=O)ON(C(C)=O)c1ccc(-c2nc3ccccc3s2)cc1", "GI50": "13.3 µM (inactive)"}

Here's the next entry for you.
# GI50 (molecule: CC(=O)O[C@]1(C)OC(=O)[C@@H](CC(C)C)N1[N+](=O)[O-] ) is > 100 µM (inactive)

====

Tested on: LOX IMVI
Test: NCI tumour cell line growth inhibition, 48 h
Activity calls are given as the source filed them. Rule as the data show it: active = GI50 up to about 1.1 µM and inactive = higher.
Readout Name: GI50

{"Compound": "CNS(=O)(=O)NNS(=O)(=O)c1ccc(F)cc1", "Experimental Result": "> 100 µM (inactive)"}
{"Compound": "Oc1ccc(-c2nn3c(CCCCCCCCc4nnc5sc(-c6ccc(O)cc6)nn45)nnc3s2)cc1", "Experimental Result": "> 100 µM (inactive)"}
{"Compound": "Cc1cc(S(=O)(=O)O)ccc1/N=N/c1ccc(/N=N/c2c(O)ccc3ccccc23)c(C)c1", "Experimental Result": "26.9 µM (inactive)"}
{"Compound": "CCCCn1c(C)c2c(c1C)C(=O)N(CC(O)CN1CCc3ccccc3C1)C2=O (stereo not given)", "Experimental Result": "49.7 µM (inactive)"}

Here's the next entry for you.
# GI50 (compound: CCCCc1ccc(Nc2nc3c(ncn3COCCBr)c(=O)[nH]2)cc1 ) is > 100 µM (inactive)

====

System: Hs-578T
Test: NCI tumour cell line growth inhibition, 48 h
Calls of active or inactive are those of the source. No stated cut-off is given here; in the data, active = GI50 up to about 1.1 µM and inactive = higher.
Readout Name: GI50

Before answering, review these 2 worked examples.
{"Compound": "[O-][S+](Nc1ccccc1)c1ccc(-c2ccccc2)cc1 (configuration not stated)", "GI50": "> 100 µM (inactive)"}
{"Compound": "O=C(Cn1c2c(c3ccccc31)CCCC2)N1CCCCC1", "GI50": "> 100 µM (inactive)"}

Hi! Can you tell me GI50 for each of these compounds?
1. CCCCc1ccc(Nc2nc3c(ncn3COCCBr)c(=O)[nH]2)cc1
2. CN(C)c1ccc(/C=N\NC(=O)c2ccccc2Nc2ccccc2C(=O)N/N=C/c2ccc(N(C)C)cc2)cc1
3. C#CCOC(=O)C(N)C(C)O (configuration not stated)

Result:
["> 100 µM (inactive)", "> 100 µM (inactive)", "> 100 µM (inactive)"]

====

Tested on: HOP-92
Assay: NCI tumour cell line growth inhibition, 48 h
Calls of active or inactive are those of the source. Cut-off read from the data, not from the text of the source: active = GI50 up to about 1.1 µM and inactive = higher.
Form entry, call: pick from active, inactive

Field: example entries. Status: answers known.
{"Molecule": "COc1ccc2nc3cc(Cl)ccc3c(NCCCN3CCN(CCCNc4ccc5nnn6c7ccccc7c(=O)c4c56)CC3)c2c1", "Discrete Label": "inactive"}
{"Molecule": "C#CCCCC(=O)N(C(=O)C[S+]([O-])CC)c1ccccc1 (stereo unspecified)", "Discrete Label": "inactive"}
{"Molecule": "COc1c(C=O)c2c(c(OC)c1OC)-c1ccc(OC)c(=O)cc1[C@@H](NC(C)=O)CC2", "Discrete Label": "active"}
{"Molecule": "C=C(C)C1CC2=C(O1)C(=O)c1ccccc1C2=O (stereo not drawn) [DEHYDROISO-ALPHA-LAPACHONE]", "Discrete Label": "inactive"}
{"Molecule": "COc1ccc2cc(C(=O)NCCc3ccccc3)ccc2c1OC", "Discrete Label": "inactive"}

Q: Hello, I am checking results. What call was entered for CC1=C(/C(C)=N/NC(=O)C(N)=O)Sc2ccccc2N1 ?
Result: inactive
